Just for reference, patent US20230287125A1 is where these values come from.

Molecular target: T1, human PD-L1-his tag protein (human, UniProt Q9NZQ7 19-238)
T1 construct: also called human PD-L1-His protein; recombinant PD-L1 protein; not shown: his tag
T1 sequence (Q9NZQ7 19-238 limits assumed): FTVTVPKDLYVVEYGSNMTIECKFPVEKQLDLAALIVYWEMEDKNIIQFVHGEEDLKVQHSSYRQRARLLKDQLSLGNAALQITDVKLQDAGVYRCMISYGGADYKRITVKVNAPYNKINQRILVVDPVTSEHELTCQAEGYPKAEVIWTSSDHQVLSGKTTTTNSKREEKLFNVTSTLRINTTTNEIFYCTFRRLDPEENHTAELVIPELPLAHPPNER
Assay: SPR (Biacore), affinity ranking, PDL1-His
Parameter kon: see the listing below.
assay_endpoint: kon (M⁻¹ s⁻¹)

Hu89C10H8-13 (antibody, V domains shown, humanized) VH: EVQLVESGGGLVKPGGSLRLSCAASGFTFSNYWMTWVRQAPGKGLEWVASITNTGSSTFYPDSVKGRFTISRDNAKNSLYLQMNSLRAEDTAVYYCARDTTIAPFDYWGQGTMVTVSS VL: DIQMTQSPSSLSASVGDRVTITCKASQNLNEYLNWYQQKLGEAPKRLIYKTNTLQAGIPSRFSGSGSGIDYTLTISSLQPEDFATYFCSQYNSGNTFGQGTKLEIK ... 764000
Hu67F3G7-1 (antibody, V domains shown, humanized) VH: EVQLVQSGAEVKKPGASVKVSCKASGYTFTDFWVSWVRQAPGQGLEWMGEIYPNSGVSRYNEKFKGRVTMTVDKSISTAYMELSRLRSDDTAVYYCARYFGYTYWFGYWGQGTLVTVSS VL: DIQMTQSPSSLSASVGDRVTITCRASKSVSTYMHWYQQKPGKAPKLLIYSASHLESGVPSRFSGSGSGTDFTLTISSLQPEDFATYYCQQSNELPVTFGGGTKVEIK ... 1.86e+06
Hu67F3G7-6 (antibody, V domains shown, humanized) VH: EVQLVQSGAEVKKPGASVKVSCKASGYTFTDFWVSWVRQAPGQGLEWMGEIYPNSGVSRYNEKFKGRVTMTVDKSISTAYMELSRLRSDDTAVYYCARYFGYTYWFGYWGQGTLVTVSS VL: DTVLTQSPSSLSASVGDRVTITCRASKSVSTYMHWYQQKPGKAPKLLIYSASHLESGVPSRFSGSGSGTDFTLTISSLQPEDFATYYCQQSNELPVTFGGGTKVEIK ... 2.01e+06
Hu67F3G7-15 (antibody, V domains shown, humanized) VH: EVQLVQSGAEVKKPGASVKVSCKASGYIFTDFWVSWVRQAPGKGLEWIGEIYPNSGVSRYNEKFKGRVTMTVDKSISTAYMELSRLRSDDTAVYYCTKYFGYTYWFGYWGQGTLVTVSS VL: DTVLTQSPSSLSASVGDRVTITCRASKSVSTYMHWYQQKPGKQPKLLIYSASHLESGVPSRFSGSGSGTDFTLTISSLQPEDFATYYCQQSNELPVTFGGGTKVEIK ... 2.61e+06
Hu67F3G7-14 (antibody, V domains shown, humanized) VH: EVQLVQSGAEVKKPGASVKVSCKASGYIFTDFWVSWVRQAPGQGLEWIGEIYPNSGVSRYNEKFKGRVTMTVDKSISTAYMELSRLRSDDTAVYYCARYFGYTYWFGYWGQGTLVTVSS VL: DTVLTQSPSSLSASVGDRVTITCRASKSVSTYMHWYQQKPGKQPKLLIYSASHLESGVPSRFSGSGSGTDFTLTISSLQPEDFATYYCQQSNELPVTFGGGTKVEIK ... 2.09e+06
Hu67F3G7-8 (antibody, V domains shown, humanized) VH: EVQLVQSGAEVKKPGASVKVSCKASGYIFTDFWVSWVRQAPGQGLEWIGEIYPNSGVSRYNEKFKGRVTMTVDKSISTAYMELSRLRSDDTAVYYCTKYFGYTYWFGYWGQGTLVTVSS VL: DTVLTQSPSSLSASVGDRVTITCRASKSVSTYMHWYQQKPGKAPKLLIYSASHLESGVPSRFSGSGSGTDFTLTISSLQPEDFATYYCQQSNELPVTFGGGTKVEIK ... 2.76e+06
Hu67F3G7-4 (antibody, V domains shown, humanized) VH: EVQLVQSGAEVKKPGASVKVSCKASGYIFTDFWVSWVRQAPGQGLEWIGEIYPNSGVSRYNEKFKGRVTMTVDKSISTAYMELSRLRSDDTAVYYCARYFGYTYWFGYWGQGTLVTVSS VL: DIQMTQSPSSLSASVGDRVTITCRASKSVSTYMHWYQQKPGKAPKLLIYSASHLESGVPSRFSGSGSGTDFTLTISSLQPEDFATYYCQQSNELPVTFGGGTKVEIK ... 1.88e+06
Hu89C10H8-5 (antibody, V domains shown, humanized) VH: EVQLVESGGGLVKPGGSLRLSCAASGFTFSNYWMTWVRQAPGKGLEWVASITNTGSSTFYPDSVKGRFTISRDNAKNSLYLQMNSLRAEDTAVYYCARDTTIAPFDYWGQGTMVTVSS VL: DIQMTQSPSSLSASVGDRVTITCKASQNLNEYLNWYQQKPGKAPKRLIYKTNTLQAGIPSRFSGSGSGTDYTLTISSLQPEDFATYYCSQYNSGNTFGQGTKLEIK ... 671000
Hu89C10H8-14 (antibody, V domains shown, humanized) VH: EVQLVESGGGLVKPGGSLRLSCAASGFTFSNYWMTWVRQAPGKGLEWVASITNTGSSTFYPDSVKGRFTISRDNAKNSLYLQMNSLRAEDTAVYYCTRDTTIAPFDYWGQGTMVTVSS VL: DIQMTQSPSSLSASVGDRVTITCKASQNLNEYLNWYQQKLGEAPKRLIYKTNTLQAGIPSRFSGSGSGIDYTLTISSLQPEDFATYFCSQYNSGNTFGQGTKLEIK ... 712000
Hu89C10H8-1 (antibody, V domains shown, humanized) VH: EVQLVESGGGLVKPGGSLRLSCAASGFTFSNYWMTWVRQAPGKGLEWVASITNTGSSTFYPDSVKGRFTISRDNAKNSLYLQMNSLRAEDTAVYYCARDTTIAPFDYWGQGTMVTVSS VL: DIQMTQSPSSLSASVGDRVTITCKASQNLNEYLNWYQQKPGKAPKRLIYKTNTLQAGVPSRFSGSGSGTDYTLTISSLQPEDFATYYCSQYNSGNTFGQGTKLEIK ... 754000
